Test system: KP1009 CTX-M-15
Assay: Aztreonam potentiation (MPC@4), strain KP1009 CTX-M-15
Details: minimum BLI concentration inhibiting growth with aztreonam 4 μg/mL; tested up to 40 μg/mL
recordedEndpoint: AZT MPC4 CTX-M-15 KP1009

C[C@H]1Cc2cccc(C(=O)O)c2O[B-]1(O)O	Z (Z = MPC@4 > 20 μg/mL)
O=C([O-])c1c(F)ccc2c1O[B-](O)(O)CC2.[Na+].[Na+]	X (X = MPC@4 ≤ 5 μg/mL)
O=C([O-])c1c(OCC#CCN2CCC2)ccc2c1O[B-](O)(O)CC2.[Na+].[Na+]	X (X = MPC@4 ≤ 5 μg/mL)
Nc1nnc(C(=O)NC2CB(O)Oc3c(C(=O)O)cccc32)s1 (stereo not drawn)	X (X = MPC@4 ≤ 5 μg/mL)
O=C([O-])c1c(O)ccc2c1O[B-](O)(O)CC2.[Na+].[Na+]	Z (Z = MPC@4 > 20 μg/mL)
O=C([O-])c1ccnc2c1O[B-](O)(O)CC2.[Na+].[Na+]	Z (Z = MPC@4 > 20 μg/mL)
O=C([O-])c1c(CSc2nncs2)ccc2c1O[B-](O)(O)CC2.[Na+].[Na+]	X (X = MPC@4 ≤ 5 μg/mL)

---

Ki values, listed per item
Molecular target: purified class A, C and D enzymes (β-lactamases) (Pseudomonas aeruginosa)
Construct: rows headed: Ki (Pa-AmpC, NCF), uM; other: purified Pa-AmpC; nitrocefin (NCF) as reporter substrate
Experiment: biochemical
Type: biochemical
recordedEndpoint: Ki

O=C([O-])c1cc(F)cc2c1O[B-](O)(O)CC2.[Na+].[Na+]	< 100 nM
O=C([O-])c1c(-c2ccn[nH]2)ccc2c1O[B-](O)(O)CC2.[Na+].[Na+]	< 100 nM
CCOc1ccc2c(c1C(=O)[O-])O[B-](O)(O)CC2.[Na+].[Na+]	< 100 nM
O=C(O)c1c(-n2ccnn2)ccc2c1O[B-](O)(O)CC2	< 100 nM
O=C([O-])c1c(CO)ccc2c1O[B-](O)(O)CC2.[Na+].[Na+]	< 100 nM
O=C([O-])c1cncc2c1O[B-](O)(O)CC2.[Na+].[Na+]	100 to 1000 nM
O=C([O-])c1c(F)ccc2c1O[B-](O)(O)CC2.[Na+].[Na+]	< 100 nM
O=C([O-])c1c(OCC#CCO)ccc2c1O[B-](O)(O)CC2.[Na+].[Na+]	< 100 nM
C[S+]([O-])c1ccc2c(c1C(=O)[O-])O[B-](O)(O)CC2.[Na+].[Na+] (stereo not shown)	< 100 nM
NS(=O)(=O)Nc1ccc2c(c1C(=O)[O-])O[B-](O)(O)CC2.[Na+].[Na+]	< 100 nM
O=C([O-])c1c(OCCN2CCOCC2)ccc2c1O[B-](O)(O)CC2.[Na+].[Na+]	100 to 1000 nM
O=C([O-])c1ccnc2c1O[B-](O)(O)CC2.[Na+].[Na+]	> 1000 nM
O=C([O-])c1c(CSc2nncs2)ccc2c1O[B-](O)(O)CC2.[Na+].[Na+]	< 100 nM
COc1ccc2c(c1C(=O)[O-])O[B-](O)(O)[C@@H](CCO)C2.[Na+].[Na+]	100 to 1000 nM
C[C@@H]1Cc2cccc(C(=O)[O-])c2O[B-]1(O)O.[Na+].[Na+]	< 100 nM
O=C([O-])c1c(C(F)F)ccc2c1O[B-](O)(O)CC2.[Na+].[Na+]	< 100 nM
C#Cc1ccc2c(c1C(=O)[O-])O[B-](O)(O)CC2.[Na+].[Na+]	< 100 nM
O=C(O)c1c(-c2c[nH]nn2)ccc2c1O[B-](O)(O)CC2	< 100 nM
CSc1ccc2c(c1C(=O)[O-])O[B-](O)(O)CC2.[Na+].[Na+]	< 100 nM
O=C([O-])c1c(OCc2ccncc2)ccc2c1O[B-](O)(O)CC2.[Na+].[Na+]	< 100 nM
Nc1nnc(SCc2ccc3c(c2C(=O)[O-])O[B-](O)(O)CC3)s1.[Na+].[Na+]	< 100 nM
NCCn1cc(COc2ccc3c(c2C(=O)O)O[B-](O)(O)CC3)nn1	< 100 nM
COCC#CCOc1ccc2c(c1C(=O)[O-])O[B-](O)(O)CC2.[Na+].[Na+]	< 100 nM
O=C([O-])c1c(OC(F)F)ccc2c1O[B-](O)(O)CC2.[Na+].[Na+]	< 100 nM
N#Cc1ccc2c(c1C(=O)[O-])O[B-](O)(O)CC2.[Na+].[Na+]	> 1000 nM
CS(=O)(=O)Nc1ccc2c(c1C(=O)[O-])O[B-](O)(O)CC2.[Na+].[Na+]	< 100 nM
O=C([O-])c1ccc2c(c1C(=O)[O-])O[B-](O)(O)CC2.[Na+].[Na+].[Na+]	< 100 nM
COc1ccc2c(c1C(=O)[O-])O[B-](O)(O)CC2.[Na+].[Na+]	< 100 nM
O=C([O-])c1c(OCCF)ccc2c1O[B-](O)(O)CC2.[Na+].[Na+]	< 100 nM
O=C([O-])c1c(OCC(F)F)ccc2c1O[B-](O)(O)CC2.[Na+].[Na+]	< 100 nM
O=C([O-])c1nccc2c1O[B-](O)(O)CC2.[Na+].[Na+]	< 100 nM
CON=Cc1ccc2c(c1C(=O)[O-])O[B-](O)(O)CC2.[Na+].[Na+]	< 100 nM
CN(C)CCOc1ccc2c(c1C(=O)[O-])O[B-](O)(O)CC2.[Na+].[Na+]	100 to 1000 nM
O=C([O-])c1c(O)ccc2c1O[B-](O)(O)CC2.[Na+].[Na+]	100 to 1000 nM

---

Target: purified class A, C and D enzymes (β-lactamases) (Acinetobacter baumannii, UniProt Q9L4P2)
Construct: rows headed: Ki (OXA-23, NCF), uM; other: purified OXA-23; nitrocefin (NCF) as reporter substrate
Test: biochemical
Conditions: purified OXA-23; nitrocefin (NCF) as reporter substrate
pKi: −log10 of the molar value.
pKi values, listed per item
recordedEndpoint: pKi

O=C([O-])c1ccnc2c1O[B-](O)(O)CC2.[Na+].[Na+]	< 6.00
NCCn1cc(COc2ccc3c(c2C(=O)O)O[B-](O)(O)CC3)nn1	> 7.00
COc1c(F)cc2c(c1C(=O)O)OB(O)CC2	> 7.00
C[C@@H]1Cc2cccc(C(=O)[O-])c2O[B-]1(O)O.[Na+].[Na+]	< 6.00
COCC#CCOc1ccc2c(c1C(=O)[O-])O[B-](O)(O)CC2.[Na+].[Na+]	> 7.00
O=C(O)c1c(OC(CO)CO)ccc2c1OB(O)CC2	> 7.00
O=C([O-])c1c(C(F)F)ccc2c1O[B-](O)(O)CC2.[Na+].[Na+]	> 7.00
O=C([O-])c1ccc2c(c1C(=O)[O-])O[B-](O)(O)CC2.[Na+].[Na+].[Na+]	> 7.00
C[C@H]1Cc2cccc(C(=O)O)c2O[B-]1(O)O	6.00 to 7.00

---

Test system: ECL1002
Assay: Aztreonam potentiation (MPC@4), strain ECL1002
Details: minimum BLI concentration inhibiting growth with aztreonam 4 μg/mL; tested up to 40 μg/mL
recordedEndpoint: AZT MPC4 ECL1002

O=C(O)[C@H]1/C(=C/CO)O[C@@H]2CC(=O)N21 [Clavulanic Acid, reference compound]	Z (Z = MPC@4 > 20 μg/mL)
O=C(O)c1cccc2c1OB(O)CN2S(=O)(=O)Cc1ccccc1 [Compound 4]	Z (Z = MPC@4 > 20 μg/mL)
Nc1nnc(C(=O)NC2CB(O)Oc3c(C(=O)O)cccc32)s1 (centres unmarked) [Compound 2]	X (X = MPC@4 ≤ 5 μg/mL)
CS(=O)(=O)Nc1ccc2c(c1C(=O)[O-])O[B-](O)(O)CC2.[Na+].[Na+] [Compound 51]	Z (Z = MPC@4 > 20 μg/mL)
O=C([O-])c1c(O)ccc2c1O[B-](O)(O)CC2.[Na+].[Na+] [Compound 42]	Z (Z = MPC@4 > 20 μg/mL)
O=C([O-])c1c(OCCF)ccc2c1O[B-](O)(O)CC2.[Na+].[Na+] [Compound 43]	X (X = MPC@4 ≤ 5 μg/mL)
O=C([O-])c1c(C(F)F)ccc2c1O[B-](O)(O)CC2.[Na+].[Na+] [Compound 50]	X (X = MPC@4 ≤ 5 μg/mL)
CSc1ccc2c(c1C(=O)[O-])O[B-](O)(O)CC2.[Na+].[Na+] [Compound 36]	X (X = MPC@4 ≤ 5 μg/mL)
COc1c(Cl)cc2c(c1C(=O)O)OB(O)CC2 [Compound 41]	X (X = MPC@4 ≤ 5 μg/mL)
O=C([O-])c1c(CSc2nncs2)ccc2c1O[B-](O)(O)CC2.[Na+].[Na+] [Compound 20]	X (X = MPC@4 ≤ 5 μg/mL)
O=C([O-])c1c(F)ccc2c1O[B-](O)(O)CC2.[Na+].[Na+] [Compound 8]	X (X = MPC@4 ≤ 5 μg/mL)
